# pEC50 per entry
# System: Human immunodeficiency virus 1
# test-protocol: Antiviral activity against HIV1 harbouring T332S/V362I/prR41G mutant infected in human MT2 cells measured after 4 to 5 days by dual-luciferase reporter assay
# Format: functional, organism-based
# condition-summary: Human immunodeficiency virus 1, MT2
pEC50: −log10 of the molar value.
reported-metric: pEC50

>  <molecule>
C=C(C)[C@@H]1CC[C@]2(NCCN3CCC(S(C)(=O)=O)CC3)CC[C@]3(C)[C@H](CC[C@@H]4[C@@]5(C)CC=C(C6=CCC(CO)(C(=O)O)CC6)C(C)(C)[C@@H]5CC[C@]43C)[C@@H]12 (some centres not stated)

>  <system-under-test>
Human immunodeficiency virus 1

>  <test-value>
8.34

$$$$
>  <molecule>
C=C(C)[C@@H]1CC[C@]2(NCCN3CCS(=O)(=O)CC3)CC[C@]3(C)[C@H](CC[C@@H]4[C@@]5(C)CC=C(C6=CCC(COCC)(C(=O)O)CC6)C(C)(C)[C@@H]5CC[C@]43C)[C@@H]12 (some centres not stated)

>  <system-under-test>
Human immunodeficiency virus 1

>  <test-value>
7.94

$$$$
